Listed binders paired with reported DGI-9
- Tested On: T1, DGI-9 (HEC) (UniProt O14777 1-642, limits assumed)
- T1 sequence (looked up): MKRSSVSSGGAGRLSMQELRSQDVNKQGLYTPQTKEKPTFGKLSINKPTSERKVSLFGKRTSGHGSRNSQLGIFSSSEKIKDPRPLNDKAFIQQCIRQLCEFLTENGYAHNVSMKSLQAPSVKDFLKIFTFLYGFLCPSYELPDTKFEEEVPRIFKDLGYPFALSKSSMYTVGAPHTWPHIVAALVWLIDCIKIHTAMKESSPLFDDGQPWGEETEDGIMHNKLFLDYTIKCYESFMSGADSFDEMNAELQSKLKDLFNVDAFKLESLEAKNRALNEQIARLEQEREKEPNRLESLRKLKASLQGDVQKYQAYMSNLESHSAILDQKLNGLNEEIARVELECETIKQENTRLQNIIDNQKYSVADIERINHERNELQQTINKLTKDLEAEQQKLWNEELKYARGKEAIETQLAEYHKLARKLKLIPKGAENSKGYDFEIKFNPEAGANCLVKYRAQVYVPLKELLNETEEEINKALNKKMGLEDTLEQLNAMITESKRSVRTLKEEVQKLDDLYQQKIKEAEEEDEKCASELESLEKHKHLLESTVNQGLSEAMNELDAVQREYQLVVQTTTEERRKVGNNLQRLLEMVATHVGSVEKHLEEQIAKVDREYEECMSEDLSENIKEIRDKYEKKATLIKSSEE
- Measurement Notes: phage ELISA; DGI-9 coated
Give the number; ratio over background is assumed, so skip it.

Sample answers from the record:
FLLQDFIMDAGSFVKPIGVGGAPVPYPDPLEPR (library 20F; not shown: phage gene III coat protein (pCANTAB5E)) [DGI9-20M-4-A414]    8.7
SRLALSSQHGLSLVAGRRRGGAPVPYPDPLEPR (library 20R (the E-tag is described for library 20F); not shown: phage gene III coat protein (pCANTAB5E)) [DGI9-20M-4-A12]    1.9
MAGFRGSGLSGYSEARLPRVGAPVPYPDPLEPR (library 20F; not shown: phage gene III coat protein (pCANTAB5E)) [DGI9-20M-4-E3]    7

We next turn to a different binder, shown below.
Exercise: Recorded DGI-9 of WDWSRFGAQLRGAILGRATGGAPVPYPDPLEPR (library 20R (the E-tag is described for library 20F); not shown: phage gene III coat protein (pCANTAB5E)) [DGI9-20M-4-A627] , please.
Key: 6

Just for reference, patent US7056679 is where these values come from.
